Numbers sourced from ChEMBL document CHEMBL3112589.

pIC50: −log10 of the molar value.
Measured pIC50 on Protease (Human immunodeficiency virus 1) follows.
Sequence (Q9YQ12 whole entry): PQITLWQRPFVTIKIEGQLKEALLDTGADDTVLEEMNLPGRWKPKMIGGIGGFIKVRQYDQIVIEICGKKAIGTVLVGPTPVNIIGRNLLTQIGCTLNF

These solved cases illustrate the format of a correct answer.
>  <input.smiles>
CC(C)c1nc(CN(C)C(=O)N[C@H](C(=O)N(CCCCN(Cc2ccccc2)C(=O)OCc2cncs2)Cc2ccccc2)C(C)C)cs1

>  <result>
4.64

$$$$
>  <input.smiles>
CC(C)CN(CC[C@H](Cc1ccccc1)NC(=O)[C@H](CCN1CCOCC1)NC(=O)N(C)Cc1csc(C(C)C)n1)C(=O)OCc1cncs1

>  <result>
< 4.52

$$$$
>  <input.smiles>
CC(C)c1nc(CN(C)C(=O)N[C@H](C(=O)N[C@H](CCNNC(=O)OCc2cncs2)Cc2ccccc2)C(C)C)cs1

>  <result>
5.06

$$$$
>  <input.smiles>
CC(C)c1nc(CN(C)C(=O)N[C@H](C(=O)N[C@@H](Cc2ccccc2)[C@H](Cc2ccccc2)NC(=O)OCc2cncs2)C(C)C)cs1

>  <result>
< 4.52

$$$$
>  <input.smiles>
CC(C)CN(CC[C@H](Cc1ccccc1)NC(=O)OCc1cncs1)C(=O)[C@H](CCN1CCOCC1)NC(=O)N(C)Cc1csc(C(C)C)n1

>  <result>
< 4.52

$$$$

Exercise: Recorded pIC50 of `CC(C)c1nc(CN(C)C(=O)N[C@H](C(=O)N[C@@H](CC[C@@H](Cc2ccccc2)NC(=O)OCc2cncs2)Cc2ccccc2)C(C)C)cs1` , please.
Solution: < 4.52

Exercise: Now this one: `CC(C)c1nc(CN(C)C(=O)N[C@@H](CCN2CCOCC2)C(=O)N[C@H](CCN(Cc2ccc(Cl)cc2)C(=O)OCc2cncs2)Cc2ccccc2)cs1`
Solution: < 4.52
